All figures here come from patent US20210198366A1.

Target: T1, cynomolgus monkey B7-H7 expressed on HEK-293T cells (cynomolgus monkey)
T1 construct: also called cyno B7-H7; cells expressing cyno B7-H7
T1 chain: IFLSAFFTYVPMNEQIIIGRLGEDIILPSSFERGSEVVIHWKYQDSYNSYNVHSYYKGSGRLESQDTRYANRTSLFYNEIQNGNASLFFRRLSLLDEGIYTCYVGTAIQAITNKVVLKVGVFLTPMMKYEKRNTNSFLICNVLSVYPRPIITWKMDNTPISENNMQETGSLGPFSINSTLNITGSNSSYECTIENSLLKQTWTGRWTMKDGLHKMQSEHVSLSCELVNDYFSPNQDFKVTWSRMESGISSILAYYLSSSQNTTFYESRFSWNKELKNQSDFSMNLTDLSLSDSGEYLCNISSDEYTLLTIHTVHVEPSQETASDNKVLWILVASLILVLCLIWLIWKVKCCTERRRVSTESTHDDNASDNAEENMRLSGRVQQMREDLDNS
Experiment: FACS on HEK-293T cells expressing cyno B7-H7
measured_parameter: MFI (MFI)

{"columns": ["binder", "u", "value"],
 "data": [
  ["anti-B7-H7 antibody 3H6 (antibody, V domains shown, Mouse hybridoma antibody) VH: EVQLQQSGPELVKPGASVKISCKTSGYTFTEYTMHWVKQSHGKSLEWIGGINPNNGGAPYNQKFKGKATLTVDKSSSTAYMELRSLTSEDSAVYYCARGGYYFDYWGQGTTLTVSS VL: DIVMTQSHKFMSTSVGDRVSITCKASQDVSTAVAWYQQKSGQSPKLLIYWASTRHTGVPDRFTGSGSGTDYTLTISSVQAEDLALYYCQQHYDTPFTFGGGTKLEIK", "MFI", 568],
  ["anti-B7-H7 antibody 5C9 (antibody, V domains shown, Mouse hybridoma antibody) VH: QVQLQQSGAELAKPGASVKMSCKASGYTFTSFWIHWIKQRPGQGLEWIGYIIPNTDYTEYNQKFKDKATFTADKSSSTAYMQLSSLTSEDSAVFYCARGLRGAYYFDYWGQGTTLTVSS VL: DIVLTQSPASLAVSLGLRATISCRSSQSVSTSTNGYMHWYQQKPGQPPKLLIMYASNLESGVPARFSGSGSGTDFTLNIHPVDEEDTATYYCQHSWVLPYTFGGGTKLEIK", "MFI", 176],
  ["anti-B7-H7 antibody 2F10 (antibody, V domains shown, Mouse hybridoma antibody) VH: EIQLQQTGPELVKPGASLRISCKASGYSFTDYIIVWVKQNQGKNLDWIEKINPYYGTTTYNLRFEDKATLTVNKSSTTAYMQLNSLTSEDSAVYYCARWDYVSTLFAMDYWGQGTSITVSS VL: DIVMTQSHKVMSTSVGDRVSIICKASQDVGTAVAWYQQKPGQSPKLLIYWASTRHTGVPDRFTGSGSGTDFILTITNVQSENLANYFCQQYKRYYTFGGGTKLEIK", "MFI", 134]
]}
